# tgt: T1, TA0096 (peptide antigen corresponding to positions 340 to 356 of PAD4)
# T1 peptide: EENMDDQWMQDEMEIGY
# protocol description: ELISA, coated peptide
As shown below, each of these binders has a reported OD 490/630 nm value.
Respond with the number and no other words.

>>> val("G9 (antibody, V domains shown, Chicken variable regions in a mouse chimeric antibody (IgG1); also called anti-PAD4 antibody G9) VH: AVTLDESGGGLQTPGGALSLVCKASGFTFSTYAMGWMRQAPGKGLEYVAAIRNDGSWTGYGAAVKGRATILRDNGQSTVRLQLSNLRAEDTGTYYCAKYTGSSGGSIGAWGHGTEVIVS VL: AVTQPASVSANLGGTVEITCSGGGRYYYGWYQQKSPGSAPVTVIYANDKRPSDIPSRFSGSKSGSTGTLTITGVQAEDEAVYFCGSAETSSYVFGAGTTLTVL")
1.85

Input: Give reported OD 490/630 nm value for E9 (antibody, V domains shown, Chicken variable regions in a mouse chimeric antibody (IgG1); also called anti-PAD4 antibody E9) VH: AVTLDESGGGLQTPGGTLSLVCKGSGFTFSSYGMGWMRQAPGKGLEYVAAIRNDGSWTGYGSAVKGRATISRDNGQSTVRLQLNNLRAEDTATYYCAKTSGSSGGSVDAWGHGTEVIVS VL: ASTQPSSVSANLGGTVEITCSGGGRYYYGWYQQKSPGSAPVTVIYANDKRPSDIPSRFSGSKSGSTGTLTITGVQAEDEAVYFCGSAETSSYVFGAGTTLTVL
Output: 1.79

Input: Give reported OD 490/630 nm value for G8 (antibody, V domains shown, Chicken variable regions in a mouse chimeric antibody (IgG1); also called anti-PAD4 antibody G8) VH: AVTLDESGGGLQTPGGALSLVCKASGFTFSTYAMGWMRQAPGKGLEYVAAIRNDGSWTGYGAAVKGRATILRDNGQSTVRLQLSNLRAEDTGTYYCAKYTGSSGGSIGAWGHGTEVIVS VL: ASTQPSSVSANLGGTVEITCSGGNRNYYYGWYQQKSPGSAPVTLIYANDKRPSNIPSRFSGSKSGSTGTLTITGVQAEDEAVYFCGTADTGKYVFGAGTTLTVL
Output: 1.88
